Each record here notes measured IC50 at 24 h.
Test: MTT cell viability assay (cytotoxicity), bEnd3
Format: cell-based, mouse
Settings: mouse, bEnd3 brain endothelial cells, 1–500 µM

Check out these entries, answers already filled in.
structure as smiles | IC50 at 24 h
COc1ccc2[nH]cc(CCNC(C)=O)c2c1 | > 500 µM
COc1cc(C=NNC(=O)CCc2c[nH]c3ccccc23)cc(OC)c1O | > 500 µM

Proceed to the following item.
stdin: Using the record for "O=C(CCc1c[nH]c2ccccc12)NN=Cc1ccc(O)cc1O" , report its IC50 at 24 h.
stdout: > 500 µM
